The origin of these recorded values is paper PMC9482650.

target: NHERF4_2, Q86UT5; assay: holdup assay; set-up: key: below the threshold = too weak to quantify, mostly under pKd 3.1 to 4; settings: plain residues with an end cap or a label only (N-terminal biotin on a linker: ado-ado)
Sequence (Q86UT5 220-308): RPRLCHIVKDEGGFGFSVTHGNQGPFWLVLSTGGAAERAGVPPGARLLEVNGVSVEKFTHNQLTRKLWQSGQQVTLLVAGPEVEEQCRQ
experimental_readout: pKd

binder: SAGADSETHC [SLCO1B1, Q9Y6L6]
recorded_measurement: below the threshold

binder: VYEVPVETKF [SLC26A3, P40879]
recorded_measurement: below the threshold

binder: QLKSGRDSTV [TMEM178A, Q8NBL3]
recorded_measurement: 3.62

binder: VISSDDLTEL [CAPN6, Q9Y6Q1]
recorded_measurement: below the threshold

binder: SGDGKTSVWI [GJC1, P36383]
recorded_measurement: below the threshold
